system: T-47D breast; assay: NCI-60 one-dose screen, 48 h (100 = growth as untreated, 0 = no growth, -100 = all killed); conditions: 10 µM unless noted
The panel holds about 83,000 compounds, 20% with a hit somewhere; the sample as a whole holds those more often.
Reported growth values for the following molecules.
Quick reminder: number only, in %, skip the unit.

Please review the entries below; each comes with its answer.
COc1ccc(-c2c(-c3ccc(OC)c(O)c3)cnc3ncnn23)cc1 ... 103
O=C(CSc1ccc2nnc(-c3cccc(F)c3)n2n1)Nc1ccc2c(c1)OCO2 ... 56.2
COc1cc(C(=O)NN=C2c3ccccc3-c3ccccc32)cc(OC)c1OC ... 37.8
C[n+]1c2ccccc2nc2ccc(NCCO)cc21 ... 91.9
CCOC(=O)c1c2c(c(C)n1Cc1ccc(OC)cc1)-c1oncc1CC2 ... 90.5
CCOC(=O)c1ccc(N=Cc2sc(=O)[nH]c2O)cc1 ... 92.3
COc1cccc2cc(N(C)c3nc(C)nc4ccsc34)ccc12 ... 60
COc1ccc(Cn2c(Br)c3c(c2Br)-c2nc(NC(=O)c4ccc(OC)cc4)sc2CC3)cc1 ... 68.7
COC(=O)C1(C)COP(=O)(Nc2ccc(OC)cc2)OC1 (stereo unspecified) ... 93.1
FC(F)(F)c1cccc(CNC2CCN(CCc3ccccc3)CC2)c1 ... 86.7

Qu. Given the molecule "CCOC(=O)c1c(C=O)nc2ccccc2c1/C=C/c1ccc(Cl)cc1" , write its reported growth.
Ans. 86.2

====

system: UACC-257 melanoma; experiment: NCI-60 one-dose screen, 48 h; settings: 10 µM unless noted
The panel holds about 83,000 compounds, 20% with a hit somewhere; the sample as a whole holds those more often. Activity calls are given as the source filed them. How the source made its calls: active means growth percent below 10; inactive means the rest.
Output constraint: value belongs to Yes (active), No (inactive)

Qu. # fetch the recorded call for "N#CC(C#N)=Cc1c(-c2ccccc2)[nH]c2ccccc12" here
Ans. No

Qu. # fetch the recorded call for "CCOc1ccc2nc(C)cc(Nc3ccc(Br)cc3)c2c1" here
Ans. No

Qu. # fetch the recorded call for CCN1C(=O)N(CC)C2Nn3c(s/c(=C\c4ccccc4F)c3=O)=NC21 (configuration not stated) here
Ans. No

Qu. # fetch the recorded call for "COc1ccc(-c2nocc2-c2cccs2)cc1" here
Ans. No

Qu. # fetch the recorded call for CCCCC1COc2cccc3c2N1C=C/C3=C\C(=O)N(C)c1ccccc1 (configuration not stated) here
Ans. No

Qu. # fetch the recorded call for "CCOC(=O)C1(Cc2ccccc2)CCN(Cc2cccc(OC)c2O)CC1" here
Ans. Yes

Qu. # fetch the recorded call for "O=C(O)CCC(=O)c1ccc(C2CCCCCC2)cc1" here
Ans. No

Qu. # fetch the recorded call for "Cc1nc2ccccc2c(/C=C/c2ccc(F)cc2)c1C(N)=O" here
Ans. No

====

Reported growth values for the following molecules.
system: HS 578T breast; experiment: NCI-60 one-dose screen, 48 h (100 = growth as untreated, 0 = no growth, -100 = all killed); settings: 10 µM unless noted
About 83,000 compounds went through this panel and 20% of them were active in at least one assay; those are over-represented in the sample as a whole.
Quick reminder: number only, in %, skip the unit.

Please review the entries below; each comes with its answer.
O=c1oc2ccc(Cl)cc2c(=O)n1-c1cc(C(F)(F)F)cc(C(F)(F)F)c1 ... -15.1
NNC(=O)CNC(=O)Nc1n[nH]c(=S)s1 ... 90.9
COc1c(B(O)O)cccc1-c1nc2ccc3n[nH]c(F)c3c2c2c1CCCC2 ... 43.9
O=C(Nc1ccsc1C(=O)NC1CCCCC1)c1ccc(F)cc1 ... 105

Qu. For HS 578T breast, give growth of the listed molecule: "Nc1nc(Nc2cccc(F)c2)nc2ccccc12"
Ans. 63.9

Qu. For HS 578T breast, give growth of the listed molecule: "O=c1c2cc(F)ccc2sc2c(NCCCNCCO)nc3ccc(Cl)cc3c12"
Ans. 56.8

Qu. For HS 578T breast, give growth of the listed molecule: "O=C(/C=C/c1ccccn1)c1ccc(OCc2nnc(-c3ccc(Cl)cc3)o2)cc1"
Ans. 65.7

Qu. For HS 578T breast, give growth of the listed molecule: "CC[C@]1(O)C[C@@H]2CN(CCc3c([nH]c4ccccc34)[C@@](C(=O)OC)(c3cc4c(cc3OC)N(C)[C@H]3[C@@](O)(C(=O)OC)[C@H](OC(C)=O)[C@]5(CC)C=CCN6CC[C@]43[C@@H]65)C2)C1"
Ans. 15.8

Qu. For HS 578T breast, give growth of the listed molecule: "O=C(CSc1nc2ccccc2c(=O)n1-c1ccccc1)Nc1ccc(C(=O)/C=C/c2ccc(Cl)cc2)cc1"
Ans. 106

Qu. For HS 578T breast, give growth of the listed molecule: "Nc1n[nH]c2ccc([C@@H]3Nc4ccc5[nH]ncc5c4[C@H]4[C@H]5CCC(C5)[C@H]43)cc12"
Ans. 5.8

====

tested on: IGROV1 ovarian; experiment: NCI-60 one-dose screen, 48 h (100 = growth as untreated, 0 = no growth, -100 = all killed); conditions: 10 µM unless noted
About 83,000 compounds went through this panel and 20% of them were active in at least one assay; those are over-represented in the sample as a whole.
Assign class by growth: not lower than 60% means yes (1); lower than 60% means no (0).

O=C1c2cc(Cl)ccc2Oc2cc([N+](=O)[O-])ccc2N1c1ccc(F)cc1F ... yes (1)
O=C(Nc1ccc(F)cc1F)c1cc(Cl)ccc1O ... no (0)
CCOC(=O)c1cc2c(n1Cc1cc(OC)cc(OC)c1)-c1oncc1CCC2 ... no (0)
c1ccc(-c2ccc(-c3nc4ccccc4[nH]3)cc2)cc1 ... yes (1)
CCN(CC)c1cc(C)c2cc(NC(=O)c3cccc(OC)c3)ccc2n1 ... yes (1)
CCOC(=O)C1=C(C)N=c2s/c(=C\c3cc(Cl)ccc3O)c(=O)n2C1c1ccc(OC)cc1 (stereo unspecified) ... yes (1)
COc1c2ccoc2c(/C=C/C=O)c2oc(-c3ccccc3)cc(=O)c12 ... yes (1)
CCN(CCO)CCNc1ccc(C)c2sc3cc(Cl)ccc3c(=O)c12 ... no (0)

Qu. Test whether the molecule "CCOc1ccccc1CN1CCc2nc3cc(C(C)(C)C)[nH]n3c(=O)c2C1" records growth of 60% or higher.
Ans. yes (1)

Qu. Test whether the molecule NC(CCc1nc2ccccc2c(=O)[nH]1)C(=O)O (stereo unspecified) records growth of 60% or higher.
Ans. yes (1)

Qu. Test whether the molecule "Cc1nc(Nc2ccccn2)sc1C(=O)/C=C/c1ccc(Cl)cc1" records growth of 60% or higher.
Ans. no (0)

====

tested on: SK-MEL-28 melanoma; experiment: NCI-60 one-dose screen, 48 h (100 = growth as untreated, 0 = no growth, -100 = all killed); conditions: 10 µM
Compounds without any hit were thinned out: in the full panel of roughly 83,000, 20% have a hit.
measurement-type: growth (%)
Quick reminder: number only, in %, skip the unit.

O=C(Nc1ccc(I)cc1F)c1cc(Cl)ccc1O ... -4.2
O=S(=O)(c1ccccc1)n1cc2c(c1-c1ccccc1)CCc1sc(Nc3ccccc3)nc1-2 ... 106
Fc1ccc(Oc2ccc(Nc3ncnc4onc(-c5ccccc5)c34)cc2)cc1 ... 110
O=c1c(-c2nc3ccccc3[nH]2)cc2ccccc2n1Cc1cn(Cc2ccc(F)cc2)nn1 ... 45.1
O=S1(=O)CCN(Cc2ccccc2)CC1 ... 102

Qu. For SK-MEL-28 melanoma, give growth of the listed compound: "C=C1C(=O)O[C@H]2[C@H]1CC/C(COC(=O)/C=C\C(=O)O)=C\CC[C@@]1(C)O[C@@H]21"
Ans. 98.8

Qu. For SK-MEL-28 melanoma, give growth of the listed compound: COc1ccc(C2Nc3ncnc(N)c3N=C3c4ccccc4C(=O)C32)cc1 (stereo unspecified)
Ans. 113

Qu. For SK-MEL-28 melanoma, give growth of the listed compound: "O=C1c2cc(Br)ccc2Oc2cc([N+](=O)[O-])ccc2N1c1ccc(I)cc1F"
Ans. 113

Qu. For SK-MEL-28 melanoma, give growth of the listed compound: "O=c1c2cc(F)cc(Cl)c2sc2c(Cl)nc3ccccc3c12"
Ans. 108

Qu. For SK-MEL-28 melanoma, give growth of the listed compound: "Nc1ccc(-c2nn3c(CCC(=O)c4nc5ncccc5[nH]4)nnc3s2)c(O)c1"
Ans. 105

Qu. For SK-MEL-28 melanoma, give growth of the listed compound: "O=C(Nc1ccsc1C(=O)NC1CCCCC1)c1ccc(F)cc1"
Ans. 96.4

====

tested on: HOP-92 NSCLC; experiment: NCI-60 one-dose screen, 48 h (100 = growth as untreated, 0 = no growth, -100 = all killed); conditions: 10 µM unless noted
About 83,000 compounds went through this panel and 20% of them were active in at least one assay; those are over-represented in the sample as a whole.
Please use class 1 for growth under 90% and class 0 for everything else, ties included.

The following molecules have reported results that may help.
COc1cc(C2C(C#N)=C(N)OC3=C2C(=O)c2ccccc2C3=O)cc(OC)c1OC (stereo not given) ... class 1
O=C(Nc1ccc(C23CC4CC(CC(c5ccccc5)(C4)C2)C3)cc1)c1cccs1 ... class 1
O=c1c(-c2nc3ccccc3[nH]2)cc2ccccc2n1Cc1cn(Cc2ccccc2Cl)nn1 ... class 1
COc1ccc(/C(C#N)=C/c2nc3c(N4CCOCC4)nc(Cl)nc3n2C)cc1OC ... class 1
O=C(Nc1ccc(N2CCNCC2)cc1)c1[nH]ncc1Nc1cc(C2CC2)ncn1 ... class 1

Qu. Quick check: growth of "O=c1oc2ccc(Cl)cc2c(=O)n1-c1ccc(F)cc1F" under 90%?
Ans. class 1

Qu. Quick check: growth of COc1ccc(CN2CCCC(C(=O)c3ccc(C(F)(F)F)cc3)C2)c(O)c1 (stereo not given) under 90%?
Ans. class 1

Qu. Quick check: growth of "O=C1C(Cl)=C(NCc2ccco2)C(=O)c2ccccc21" under 90%?
Ans. class 0

Qu. Quick check: growth of "O=C(Nc1ccc(N2CCNCC2)cn1)c1[nH]ncc1Nc1ncnc2sc3c(c12)CCC3" under 90%?
Ans. class 1

Qu. Quick check: growth of "COc1ccc(/C=C2\CCC/C(=C\c3ccc(OC)c(OC)c3)C2=O)cc1OC" under 90%?
Ans. class 0

Qu. Quick check: growth of "Nc1ccc(-c2nc3cc(Oc4ccc(Oc5ccc6[nH]c(-c7ccc(N)cc7)nc6c5)cc4)ccc3[nH]2)cc1" under 90%?
Ans. class 0
